targetOrSystem: Beta-lactamase SHV-1 (Escherichia coli, UniProt P0AD63)
Sequence (P0AD63 whole entry): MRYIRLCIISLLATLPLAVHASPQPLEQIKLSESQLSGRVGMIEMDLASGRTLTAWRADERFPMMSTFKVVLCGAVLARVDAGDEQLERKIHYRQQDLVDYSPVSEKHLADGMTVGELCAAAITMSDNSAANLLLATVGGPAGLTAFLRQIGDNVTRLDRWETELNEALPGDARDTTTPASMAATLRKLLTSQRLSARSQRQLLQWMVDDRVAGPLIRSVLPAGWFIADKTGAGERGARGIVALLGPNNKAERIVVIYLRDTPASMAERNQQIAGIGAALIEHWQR
experimentalProtocol: Inhibitory activity against Escherichia coli HA208 Class-III SHV-1 type beta-lactamase enzyme
Note to self: IC50 under 700 nM means satisfied, ties and anything higher get not satisfied.

Ask: Is IC50 strictly under 700 nM for the entry Cn1ccnc1SC[C@]1(C)S[C@@H]2[C@H](Br)C(=O)N2[C@H]1C(=O)O ?
Reply: satisfied

Ask: Is IC50 strictly under 700 nM for the entry Cn1ccnc1SC[C@@]1(C)[C@H](C(=O)O)N2C(=O)C[C@H]2S1(=O)=O ?
Reply: not satisfied

Ask: Is IC50 strictly under 700 nM for the entry C[C@]1(CSc2nc3ccccc3[nH]2)[C@H](C(=O)O)N2C(=O)C[C@H]2S1(=O)=O ?
Reply: satisfied

Ask: Is IC50 strictly under 700 nM for the entry Cn1nnnc1SC[C@@]1(C)[C@H](C(=O)O)N2C(=O)C[C@H]2S1(=O)=O ?
Reply: satisfied

Ask: Is IC50 strictly under 700 nM for the entry C[C@@]1(CSc2nc3ccccc3s2)S[C@@H]2[C@H](Br)C(=O)N2[C@H]1C(=O)O ?
Reply: satisfied

Ask: Is IC50 strictly under 700 nM for the entry C[C@]1(CSC2=NCCS2)[C@H](C(=O)O)N2C(=O)C[C@H]2S1(=O)=O ?
Reply: satisfied

Ask: Is IC50 strictly under 700 nM for the entry Cn1cnnc1SC[C@@]1(C)[C@H](C(=O)O)N2C(=O)C[C@H]2S1(=O)=O ?
Reply: satisfied

Ask: Is IC50 strictly under 700 nM for the entry Cn1nnnc1SC[C@]1(C)S[C@@H]2[C@H](Br)C(=O)N2[C@H]1C(=O)O ?
Reply: not satisfied

Ask: Is IC50 strictly under 700 nM for the entry CC1(C)[C@H](C(=O)O)N2C(=O)C[C@H]2S1(=O)=O [SULBACTAM] ?
Reply: not satisfied

Ask: Is IC50 strictly under 700 nM for the entry C[C@@]1(CSc2nc3ccccc3o2)S[C@@H]2[C@H](Br)C(=O)N2[C@H]1C(=O)O ?
Reply: satisfied

Ask: Is IC50 strictly under 700 nM for the entry C[C@]1(Cn2ccnn2)[C@H](C(=O)O)N2C(=O)C[C@H]2S1(=O)=O [TAZOBACTAM] ?
Reply: satisfied

====

targetOrSystem: Beta-lactamase (Staphylococcus aureus)
Sequence (P00807 whole entry): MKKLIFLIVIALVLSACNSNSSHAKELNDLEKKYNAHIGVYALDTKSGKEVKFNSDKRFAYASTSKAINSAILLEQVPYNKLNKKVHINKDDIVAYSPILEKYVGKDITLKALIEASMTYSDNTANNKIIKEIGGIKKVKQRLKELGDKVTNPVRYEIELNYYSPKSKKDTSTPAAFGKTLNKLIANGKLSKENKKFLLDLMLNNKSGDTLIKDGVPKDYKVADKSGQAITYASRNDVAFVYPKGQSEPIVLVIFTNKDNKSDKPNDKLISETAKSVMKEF
experimentalProtocol: Inhibitory activity against Staphylococcus aureus CJ8 beta-lactamase enzyme
endpointName: IC50 (nM)
The answer is to be given in nM; state only the numeric part.

Ask: Supply measured IC50 of C[C@@]1(CSc2nc3ccccc3o2)S[C@@H]2[C@H](Br)C(=O)N2[C@H]1C(=O)O in your reply.
Reply: 116

====

targetOrSystem: Beta-lactamase BRO-1 (Moraxella catarrhalis)
Sequence (Q59514 whole entry): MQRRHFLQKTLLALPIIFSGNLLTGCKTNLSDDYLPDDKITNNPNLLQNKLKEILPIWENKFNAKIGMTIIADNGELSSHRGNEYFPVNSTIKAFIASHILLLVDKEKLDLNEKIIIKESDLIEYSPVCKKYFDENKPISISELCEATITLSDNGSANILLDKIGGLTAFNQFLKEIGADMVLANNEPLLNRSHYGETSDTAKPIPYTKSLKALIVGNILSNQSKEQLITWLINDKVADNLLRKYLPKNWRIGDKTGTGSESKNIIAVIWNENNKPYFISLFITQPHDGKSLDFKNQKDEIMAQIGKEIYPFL
experimentalProtocol: Inhibitory activity against Branhamella catarrhalis 89001 Class-III BRO-1 type beta-lactamase enzyme
endpointName: pIC50
Remember, pIC50 is on a log scale: it is -log10 of the molar concentration.

Ask: Supply measured pIC50 of Cn1nnnc1SC[C@@]1(C)[C@H](C(=O)O)N2C(=O)C[C@H]2S1(=O)=O in your reply.
Reply: 8.06

Ask: Supply measured pIC50 of C[C@]1(CSC2=NCCS2)[C@H](C(=O)O)N2C(=O)C[C@H]2S1(=O)=O in your reply.
Reply: 8.54

Ask: Supply measured pIC50 of C[C@]1(Cn2ccnn2)[C@H](C(=O)O)N2C(=O)C[C@H]2S1(=O)=O [TAZOBACTAM] in your reply.
Reply: 7.48

Ask: Supply measured pIC50 of O=C(O)[C@H]1/C(=C/CO)O[C@@H]2CC(=O)N21 [CLAVULANIC ACID] in your reply.
Reply: 7.52

Ask: Supply measured pIC50 of Cn1cnnc1SC[C@@]1(C)[C@H](C(=O)O)N2C(=O)C[C@H]2S1(=O)=O in your reply.
Reply: 8.54

Ask: Supply measured pIC50 of Cn1ccnc1SC[C@]1(C)S[C@@H]2[C@H](Br)C(=O)N2[C@H]1C(=O)O in your reply.
Reply: 7.20

Ask: Supply measured pIC50 of Cn1ccnc1SC[C@@]1(C)[C@H](C(=O)O)N2C(=O)C[C@H]2S1(=O)=O in your reply.
Reply: 8.54

Ask: Supply measured pIC50 of Cn1nnnc1SC[C@]1(C)S[C@@H]2[C@H](Br)C(=O)N2[C@H]1C(=O)O in your reply.
Reply: 7.29

Ask: Supply measured pIC50 of C[C@@]1(CSc2nc3ccccc3s2)S[C@@H]2[C@H](Br)C(=O)N2[C@H]1C(=O)O in your reply.
Reply: 7.25

====

I'd appreciate it if you could supply IC50 values for the items below.
targetOrSystem: Beta-lactamase TEM (Escherichia coli)
Sequence (P62593 whole entry): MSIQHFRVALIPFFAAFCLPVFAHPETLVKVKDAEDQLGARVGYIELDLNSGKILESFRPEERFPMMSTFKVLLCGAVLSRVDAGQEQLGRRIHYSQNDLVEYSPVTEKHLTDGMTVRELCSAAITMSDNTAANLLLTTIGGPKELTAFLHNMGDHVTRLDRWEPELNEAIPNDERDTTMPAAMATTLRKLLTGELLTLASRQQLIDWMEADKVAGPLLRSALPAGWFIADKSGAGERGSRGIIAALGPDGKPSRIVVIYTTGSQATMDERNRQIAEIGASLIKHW
experimentalProtocol: Inhibitory activity against Escherichia coli HA58R Class-III TEM-1 type beta-lactamase enzyme
The answer is to be given in nM; state only the numeric part.

Ask: Supply measured IC50 of C[C@@]1(CSc2nc3ccccc3s2)S[C@@H]2[C@H](Br)C(=O)N2[C@H]1C(=O)O in your reply.
Reply: 35.9

Ask: Supply measured IC50 of Cn1ccnc1SC[C@]1(C)S[C@@H]2[C@H](Br)C(=O)N2[C@H]1C(=O)O in your reply.
Reply: 15.3

Ask: Supply measured IC50 of C[C@]1(CSC2=NCCS2)[C@H](C(=O)O)N2C(=O)C[C@H]2S1(=O)=O in your reply.
Reply: 22.8

Ask: Supply measured IC50 of Cn1nnnc1SC[C@@]1(C)[C@H](C(=O)O)N2C(=O)C[C@H]2S1(=O)=O in your reply.
Reply: 17.3

Ask: Supply measured IC50 of C[C@]1(CSc2nc3ccccc3[nH]2)[C@H](C(=O)O)N2C(=O)C[C@H]2S1(=O)=O in your reply.
Reply: 65.5

Ask: Supply measured IC50 of C[C@]1(CSc2nc3ccccc3o2)[C@H](C(=O)O)N2C(=O)C[C@H]2S1(=O)=O in your reply.
Reply: 10.5

Ask: Supply measured IC50 of C[C@@]1(CSc2nc3ccccc3o2)S[C@@H]2[C@H](Br)C(=O)N2[C@H]1C(=O)O in your reply.
Reply: 30.3

Ask: Supply measured IC50 of Cn1cnnc1SC[C@@]1(C)[C@H](C(=O)O)N2C(=O)C[C@H]2S1(=O)=O in your reply.
Reply: 72.2

Ask: Supply measured IC50 of Cn1nnnc1SC[C@]1(C)S[C@@H]2[C@H](Br)C(=O)N2[C@H]1C(=O)O in your reply.
Reply: 101

====

targetOrSystem: Beta-lactamase (Enterobacter cloacae)
Sequence (P05364 whole entry): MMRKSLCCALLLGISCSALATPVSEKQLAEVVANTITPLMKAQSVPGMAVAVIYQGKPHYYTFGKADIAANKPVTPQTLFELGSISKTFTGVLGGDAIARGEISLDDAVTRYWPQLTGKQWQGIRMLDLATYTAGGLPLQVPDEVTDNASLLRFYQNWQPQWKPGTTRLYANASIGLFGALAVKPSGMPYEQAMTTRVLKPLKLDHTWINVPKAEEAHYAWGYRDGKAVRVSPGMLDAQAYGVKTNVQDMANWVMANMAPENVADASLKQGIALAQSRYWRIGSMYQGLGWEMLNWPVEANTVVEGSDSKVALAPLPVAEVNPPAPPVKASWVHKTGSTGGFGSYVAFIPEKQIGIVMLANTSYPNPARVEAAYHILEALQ
experimentalProtocol: Inhibitory activity against Enterobacter cloacae HC8 Class-I beta-lactamase enzyme type P99
endpointName: pIC50
Remember, pIC50 is on a log scale: it is -log10 of the molar concentration.

Ask: Supply measured pIC50 of C[C@@]1(CSc2nc3ccccc3o2)S[C@@H]2[C@H](Br)C(=O)N2[C@H]1C(=O)O in your reply.
Reply: 4.74

====

targetOrSystem: Beta-lactamase (Citrobacter freundii)
Sequence (P05193 whole entry): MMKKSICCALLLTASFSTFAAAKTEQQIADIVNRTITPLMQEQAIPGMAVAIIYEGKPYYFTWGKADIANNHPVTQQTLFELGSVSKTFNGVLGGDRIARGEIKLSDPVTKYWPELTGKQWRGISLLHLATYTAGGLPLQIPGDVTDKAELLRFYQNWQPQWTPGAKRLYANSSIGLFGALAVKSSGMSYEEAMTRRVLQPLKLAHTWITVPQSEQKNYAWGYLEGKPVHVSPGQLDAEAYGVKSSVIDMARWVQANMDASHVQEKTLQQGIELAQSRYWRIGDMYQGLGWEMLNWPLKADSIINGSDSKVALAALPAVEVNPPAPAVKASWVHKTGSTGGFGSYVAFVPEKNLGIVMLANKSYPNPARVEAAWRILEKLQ
experimentalProtocol: Inhibitory activity against Citrobacter freundii 87470 Class-I beta-lactamase enzyme
endpointName: pIC50
Remember, pIC50 is on a log scale: it is -log10 of the molar concentration.

Ask: Supply measured pIC50 of C[C@@]1(CSc2nc3ccccc3o2)S[C@@H]2[C@H](Br)C(=O)N2[C@H]1C(=O)O in your reply.
Reply: 4.83
